- Tested on: SF-539
- Test description: NCI tumour cell line growth inhibition, 48 h
Active and inactive are the calls of the source. No stated cut-off is given here; in the data, active = GI50 up to about 1.1 µM and inactive = higher.
GI50 by entry:

See these solved cases before continuing.
O=S(=O)(O)c1cc(/N=[N+](\[O-])c2ccc(/N=N/c3ccccc3)cc2S(=O)(=O)O)ccc1/C=C/c1ccc(/N=[N+](\[O-])c2ccc(/N=N/c3ccccc3)cc2S(=O)(=O)O)cc1S(=O)(=O)O ... > 31.6 µM (inactive)
CCCN(CCC)C(=O)c1c(N2CCN(C)CC2)c2cccnc2n2c(C)cnc12 ... > 100 µM (inactive)
Cc1c(OCc2cccc3ccccc23)ccc2c(=O)cc(SCCN3CCOCC3)oc12 ... > 100 µM (inactive)

Short answer for `O=S(=O)([C-]([I+]c1ccccc1)S(=O)(=O)C(F)(F)C(F)(F)C(F)(F)C(F)(F)F)C(F)(F)C(F)(F)C(F)(F)C(F)(F)F` : GI50 was 15.5 µM (inactive)

Short answer for CC(O)C1(CNc2cc(Cl)nc(N)n2)CC(CCc2ccccc2)C1 (centres undefined) : GI50 was 16.6 µM (inactive)

Short answer for `O=[N+]([O-])C(/C=C(\Cl)n1nnc2ccccc21)=C(/Cl)n1nnc2ccccc21` : GI50 was > 100 µM (inactive)

* * *

- Tested on: SR
- Test description: NCI tumour cell line growth inhibition, 48 h
Active and inactive are the calls of the source. No stated cut-off is given here; in the data, active = GI50 up to about 1.1 µM and inactive = higher.
Pick one: True = active, False = inactive

The examples below pair each entry with its known result.
N#CC(C#N)=Cc1c(O)ccc2ccccc12 ... False
CN(C)CCNc1nc(-c2ccc3ccccc3c2)nc2[nH]cnc12 ... False
C[C@H]1C=C2[C@@H]3CC(C)(C(=O)O)CC[C@]3(C)CC[C@]2(C)[C@]2(C)CC[C@H]3C(C)(C)[C@@H](OC(=O)c4cccc5c(=O)c6ccccc6[nH]c45)CC[C@]3(C)[C@@H]12 (some centres undefined) ... False

Req: Can you look up the reported call for `COc1cc(/C=C\c2ccc(Br)cc2)cc(OC)c1OC` for me?
Resp: True

* * *

- Tested on: A549
- Test description: NCI tumour cell line growth inhibition, 48 h
Calls of active or inactive are those of the source. Rule as the data show it: active = GI50 up to about 1.1 µM and inactive = higher.
GI50 by entry:

Cc1ccc2c(c1)nc(N)n[n+]2[O-] ... > 100 µM (inactive)

Short answer for COc1cc(C(c2cc3c(cc2O)OCO3)N2CCCC2)cc(OC)c1OC (stereo unspecified) : GI50 was 20.4 µM (inactive)

Short answer for `O=C1N/C(=N/N=C/c2ccccc2)N/C1=C\c1c[nH]c2ccccc12` : GI50 was 28 µM (inactive)

Short answer for CC1CCP(=O)(c2ccccc2)c2ccccc21 (stereo unspecified) : GI50 was > 100 µM (inactive)

Short answer for `O=c1[nH]c(=O)n(COCc2ccccc2)c2ccccc12` : GI50 was 92.7 µM (inactive)

Short answer for `CCOC(=O)c1csc(NC(=O)CN2CCOCC2)n1` : GI50 was > 100 µM (inactive)

Short answer for `Cc1cn2c(C)csc2c1P(=O)(OC(C)C)OC(C)C` : GI50 was > 100 µM (inactive)

Short answer for `CCCCCCC(=O)C/C(CCC(=O)N(Cc1ccccc1)Cc1ccccc1)=N\Nc1ccc([N+](=O)[O-])cc1[N+](=O)[O-]` : GI50 was 46.1 µM (inactive)

Short answer for `O=C(O)CCNC(=O)c1cc(N(CCBr)CCBr)c([N+](=O)[O-])cc1[N+](=O)[O-]` : GI50 was > 100 µM (inactive)

Short answer for `CCn1sc2ccccc2c1=O` : GI50 was 16.1 µM (inactive)

Short answer for `CCNc1ncnc2nn[nH]c12` : GI50 was > 100 µM (inactive)
